Molecular target: STAT4 (Homo sapiens, UniProt Q14765)
Construct: made in house; host or cells: HEK293 (transient transfection), unpurified extract
Sequence (Q14765 1-748): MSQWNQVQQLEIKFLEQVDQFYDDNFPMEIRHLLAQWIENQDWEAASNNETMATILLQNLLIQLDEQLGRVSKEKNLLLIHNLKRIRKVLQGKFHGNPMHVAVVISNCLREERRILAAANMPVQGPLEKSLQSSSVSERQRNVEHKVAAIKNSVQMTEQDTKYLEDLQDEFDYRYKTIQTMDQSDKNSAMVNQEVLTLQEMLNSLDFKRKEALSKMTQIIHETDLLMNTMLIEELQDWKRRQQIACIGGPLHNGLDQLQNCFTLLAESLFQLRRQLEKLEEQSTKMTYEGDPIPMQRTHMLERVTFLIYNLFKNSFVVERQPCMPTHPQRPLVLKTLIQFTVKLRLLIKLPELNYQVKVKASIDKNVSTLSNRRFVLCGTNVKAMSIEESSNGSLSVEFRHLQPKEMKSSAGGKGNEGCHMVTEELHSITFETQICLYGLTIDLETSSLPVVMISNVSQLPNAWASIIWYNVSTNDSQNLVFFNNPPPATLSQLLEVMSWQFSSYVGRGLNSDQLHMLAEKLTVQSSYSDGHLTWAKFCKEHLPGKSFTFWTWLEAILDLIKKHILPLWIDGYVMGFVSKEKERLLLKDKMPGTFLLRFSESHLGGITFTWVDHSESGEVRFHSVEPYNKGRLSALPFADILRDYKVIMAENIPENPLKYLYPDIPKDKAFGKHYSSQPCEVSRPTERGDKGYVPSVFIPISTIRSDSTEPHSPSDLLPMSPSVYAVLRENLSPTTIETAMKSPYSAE
Experiment: biochemical
Format: binding
Conditions: primary screen, 10 μM
Non-standard residues stand in square brackets, D forms with d. Residues, ends and D or L forms follow the SMILES beside them. *: point of attachment. pY = N[C@@H](Cc1ccc(OP(=O)(O)O)cc1)C(=O)O; Caffeoyl = O=C(/C=C/c1ccc(O)c(O)c1)*
property.name: percent of DMSO vehicle control

# batch: return percent of DMSO vehicle control for each of the 5 compounds below
1. CC(C)(C)[C@H](NC(=O)/C=C/c1ccc(OP(=O)(O)O)cc1)C(=O)N1CCC[C@H]1C(=O)N(c1ccccc1)c1ccc(I)cc1
2. CC[C@H](C)[C@H](NC(=O)[C@H](CCC(=O)O)NC(=O)[C@H](CCC(=O)O)NC(=O)[C@H](Cc1ccc(OP(=O)(O)O)cc1)NC(=O)/C=C/c1ccc(O)c(O)c1)C(=O)N[C@@H](CCC(=O)O)C(=O)O [Caffeic acid-pYEEIE] (Caffeoyl-[pY]EEIE-OH)
3. NC(=O)CC[C@H](NC(=O)[C@@H]1CC[C@@H]2CCN(C(=O)CCCCCC#Cc3cccc4c3CN(C3CCC(=O)NC3=O)C4=O)C[C@H](NC(=O)c3cc4cc(C(F)(F)P(=O)(O)O)ccc4[nH]3)C(=O)N21)C(=O)NC(c1ccccc1)c1ccccc1 (some centres unmarked)
4. CC[C@H](C)[C@H](NC(=O)[C@H](CCC(=O)O)NC(=O)[C@H](CCC(=O)O)NC(=O)[C@H](Cc1ccc(OP(=O)(O)O)cc1)NC(C)=O)C(=O)N[C@@H](CCC(=O)O)C(N)=O [Ac-pYEEIE-NH2] (Ac-[pY]EEIE-NH2)
5. CC(=O)N[C@@H](Cc1ccc(CP(=O)(O)O)cc1)C(=O)NC1(C(=O)N[C@@H](CC(N)=O)C(=O)NCCCc2c(O)ccc3ccccc23)CCCCC1

0.2±0.3%
8.8±0.4%
1.1±0.2%
106.6%
91.4±14.0%

* * *

Target: SLP76 (Homo sapiens)
Construct: made in house; host or cells: HEK293 (transient transfection), unpurified extract
Sequence (Q13094 1-533): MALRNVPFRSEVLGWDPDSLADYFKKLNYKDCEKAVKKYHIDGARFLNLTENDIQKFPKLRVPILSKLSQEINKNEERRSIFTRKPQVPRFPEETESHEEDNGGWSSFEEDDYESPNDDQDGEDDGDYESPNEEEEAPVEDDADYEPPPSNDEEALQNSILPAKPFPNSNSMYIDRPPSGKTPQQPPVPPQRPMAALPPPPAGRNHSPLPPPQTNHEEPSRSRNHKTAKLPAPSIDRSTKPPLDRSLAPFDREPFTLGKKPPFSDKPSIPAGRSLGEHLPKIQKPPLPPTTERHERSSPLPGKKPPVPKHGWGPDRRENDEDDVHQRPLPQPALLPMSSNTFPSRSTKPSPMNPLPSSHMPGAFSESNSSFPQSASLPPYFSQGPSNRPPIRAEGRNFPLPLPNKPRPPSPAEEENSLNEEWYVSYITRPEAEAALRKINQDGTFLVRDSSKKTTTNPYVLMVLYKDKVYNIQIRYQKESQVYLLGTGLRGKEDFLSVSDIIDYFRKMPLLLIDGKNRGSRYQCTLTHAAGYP
Test: biochemical
Format: binding
Details: primary screen, 10 μM; read-out: percent of DMSO vehicle control
property.name: remaining activity at 10 µM (%)
One number for each entry, in %.

- molecule: "O=C(CCl)Nc1cccc(CNC(=O)[C@H](Cc2ccc(OP(=O)(O)O)cc2)NC(=O)Cc2ccc(F)cc2)c1 [MN551]"
  remaining activity at 10 µM [%]: 116
- molecule: "C/C(=C\\C(=O)N[C@H](C(=O)N1CCC[C@H]1C(=O)N(c1ccccc1)c1ccc(I)cc1)C(C)(C)C)c1ccc(OP(=O)(O)O)cc1 [STAT6-IN-1]"
  remaining activity at 10 µM [%]: 50.8
- molecule: "O=C(COc1ccc2cc(C(=O)Nc3ccccc3)ccc2c1)NCc1ccc(OP(=O)(O)O)c(OP(=O)(O)O)c1 [Stafib-1]"
  remaining activity at 10 µM [%]: 97.5

Consider the record given below.
State its remaining activity at 10 µM for this molecule: CC(C)(C)[C@H](NC(=O)/C=C/c1ccc(OP(=O)(O)O)cc1)C(=O)N1CCC[C@H]1C(=O)N(c1ccccc1)c1ccc(I)cc1 [STAT6-IN-3] 93.6

* * *

target: CRK (Homo sapiens, UniProt P46108); construct: the DNA-tagged SH2 domain concentrations used in this study were <0.1 nM; made in house; host or cells: HEK293 (transient transfection; unpurified extract); test: biochemical; type: binding; conditions: read-out: percent of DMSO vehicle control
Sequence (P46108 13-118 limits assumed): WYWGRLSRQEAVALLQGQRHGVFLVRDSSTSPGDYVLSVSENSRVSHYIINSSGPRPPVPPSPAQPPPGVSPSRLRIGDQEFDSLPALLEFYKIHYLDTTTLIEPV
Non-standard residues stand in square brackets, D forms with d. Residues, ends and D or L forms follow the SMILES beside them. *: point of attachment. pY = N[C@@H](Cc1ccc(OP(=O)(O)O)cc1)C(=O)O; Caffeoyl = O=C(/C=C/c1ccc(O)c(O)c1)*
property.name: percent of DMSO vehicle control at 10 µM (%)
Numbers only, in %.

- compound: "CC[C@H](C)[C@H](NC(=O)[C@H](CCC(=O)O)NC(=O)[C@H](CCC(=O)O)NC(=O)[C@H](Cc1ccc(OP(=O)(O)O)cc1)NC(=O)/C=C/c1ccc(O)c(O)c1)C(=O)N[C@@H](CCC(=O)O)C(=O)O [Caffeic acid-pYEEIE] (Caffeoyl-[pY]EEIE-OH)"
  percent of DMSO vehicle control at 10 µM [%]: 3.1

# batch: return percent of DMSO vehicle control at 10 µM for each of the 3 compounds below
1. CC(=O)N[C@@H](Cc1ccc(CP(=O)(O)O)cc1)C(=O)NC1(C(=O)N[C@@H](CC(N)=O)C(=O)NCCCc2c(O)ccc3ccccc23)CCCCC1
2. CC(=O)N1CC[C@H]2CC[C@@H](C(=O)N[C@@H](CCC(N)=O)C(=O)NC(c3ccccc3)c3ccccc3)N2C(=O)[C@@H](NC(=O)c2cc3cc(C(F)(F)P(=O)(O)O)ccc3[nH]2)C1
3. NC(=O)CC[C@H](NC(=O)[C@@H]1CC[C@@H]2CCN(C(=O)CCCCCC#Cc3cccc4c3CN(C3CCC(=O)NC3=O)C4=O)C[C@H](NC(=O)c3cc4cc(C(F)(F)P(=O)(O)O)ccc4[nH]3)C(=O)N21)C(=O)NC(c1ccccc1)c1ccccc1 (stereo partly shown)

[88.3, 119, 77]

* * *

molecular target: SHC1 (Homo sapiens); construct: made in house; host or cells: HEK293 (transient transfection), unpurified extract; experiment: biochemical; assay type: binding; conditions: primary screen, 10 μM; read-out: percent of DMSO vehicle control
Sequence (P29353 whole entry): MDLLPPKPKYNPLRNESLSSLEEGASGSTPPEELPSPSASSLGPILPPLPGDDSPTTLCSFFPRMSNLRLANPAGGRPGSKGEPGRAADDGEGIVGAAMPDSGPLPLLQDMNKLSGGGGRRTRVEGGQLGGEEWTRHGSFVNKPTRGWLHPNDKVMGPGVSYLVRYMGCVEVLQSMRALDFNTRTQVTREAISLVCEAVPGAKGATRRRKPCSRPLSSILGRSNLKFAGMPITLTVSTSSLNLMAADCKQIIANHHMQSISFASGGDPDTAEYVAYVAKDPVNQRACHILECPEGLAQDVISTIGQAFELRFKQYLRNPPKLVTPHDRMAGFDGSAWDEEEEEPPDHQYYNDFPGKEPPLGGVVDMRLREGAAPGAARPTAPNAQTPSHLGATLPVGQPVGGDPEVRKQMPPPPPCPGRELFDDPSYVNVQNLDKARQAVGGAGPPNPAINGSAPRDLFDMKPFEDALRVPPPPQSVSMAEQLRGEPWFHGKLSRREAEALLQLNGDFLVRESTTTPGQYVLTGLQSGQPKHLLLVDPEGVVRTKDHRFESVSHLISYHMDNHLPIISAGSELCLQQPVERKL
I'd be grateful if you could share measured remaining activity at 10 µM for these entries.
Answers are plain numbers, in %.

The cases that follow already have their remaining activity at 10 µM on record.
- structure: "CC(C)(C)[C@H](NC(=O)/C=C/c1ccc(OP(=O)(O)O)cc1)C(=O)N1CCC[C@H]1C(=O)N(c1ccccc1)c1ccc(I)cc1"
  property.name: "remaining activity at 10 µM"
  unit.string: "%"
  recorded.value: 62.5
- structure: "O=C(COc1ccc2cc(C(=O)Nc3ccccc3)ccc2c1)NCc1ccc(OP(=O)(O)O)c(OP(=O)(O)O)c1"
  property.name: "remaining activity at 10 µM"
  unit.string: "%"
  recorded.value: 67.3
- structure: "C/C(=C\\C(=O)N[C@H](C(=O)N1CCC[C@H]1C(=O)N(c1ccccc1)c1ccc(I)cc1)C(C)(C)C)c1ccc(OP(=O)(O)O)cc1"
  property.name: "remaining activity at 10 µM"
  unit.string: "%"
  recorded.value: 48.2

Consider the record given below.
State its remaining activity at 10 µM for this compound: `O=C(CCl)Nc1cccc(CNC(=O)[C@H](Cc2ccc(OP(=O)(O)O)cc2)NC(=O)Cc2ccc(F)cc2)c1` 112
